- System: Escherichia coli TOP10;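 note: peptides expressed intracellularly from a pBAD plasmid library in pooled LB shake-flask culture, induced with 0.3% L-arabinose, DNA abundance read by NGS, three biological replicates, DESeq2 with apeglm shrinkage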
- test name: shrunken log2 fold change of peptide-encoding DNA abundance (4.5 h post-induction vs induction); higher = less antimicrobial activity (less host growth inhibition)
- experimental context: time post-induction: 4.5 h; library: site-saturation at positions 5, 18, 19, 20
measured property: shrunken log2 fold change

[Q] I have this sequence here, RRIRYRPPRLPRPRPRPHCRPRP , and I need its recorded shrunken log2 fold change.
[A] -0.372

[Q] I have this sequence here, RRIRYRPPRLPRPRPRPQCSPRP , and I need its recorded shrunken log2 fold change.
[A] -0.73

[Q] I have this sequence here, RRIRCRPPRLPRPRPRPIFPPRP , and I need its recorded shrunken log2 fold change.
[A] 0.247

[Q] I have this sequence here, RRIRNRPPRLPRPRPRPWVSPRP , and I need its recorded shrunken log2 fold change.
[A] 0.069

[Q] I have this sequence here, RRIRFRPPRLPRPRPRPIWCPRP , and I need its recorded shrunken log2 fold change.
[A] -0.0176

[Q] I have this sequence here, RRIRNRPPRLPRPRPRPTPVPRP , and I need its recorded shrunken log2 fold change.
[A] 0.425

[Q] I have this sequence here, RRIRFRPPRLPRPRPRPRIEPRP , and I need its recorded shrunken log2 fold change.
[A] -0.0896

[Q] I have this sequence here, RRIRLRPPRLPRPRPRPGIHPRP , and I need its recorded shrunken log2 fold change.
[A] -0.322

[Q] I have this sequence here, RRIRHRPPRLPRPRPRPGHAPRP , and I need its recorded shrunken log2 fold change.
[A] -0.0876

[Q] I have this sequence here, RRIRYRPPRLPRPRPRPDSWPRP , and I need its recorded shrunken log2 fold change.
[A] -0.602

[Q] I have this sequence here, RRIRMRPPRLPRPRPRPGCSPRP , and I need its recorded shrunken log2 fold change.
[A] 0.815

[Q] I have this sequence here, RRIRFRPPRLPRPRPRPELAPRP , and I need its recorded shrunken log2 fold change.
[A] 0.0952

[Q] I have this sequence here, RRIRQRPPRLPRPRPRPQWKPRP , and I need its recorded shrunken log2 fold change.
[A] -0.0075

[Q] I have this sequence here, RRIRQRPPRLPRPRPRPTMDPRP , and I need its recorded shrunken log2 fold change.
[A] 0.0884

[Q] I have this sequence here, RRIRYRPPRLPRPRPRPTFTPRP , and I need its recorded shrunken log2 fold change.
[A] -0.566

[Q] I have this sequence here, RRIRARPPRLPRPRPRPSEQPRP , and I need its recorded shrunken log2 fold change.
[A] 0.248

[Q] I have this sequence here, RRIRIRPPRLPRPRPRPQRRPRP , and I need its recorded shrunken log2 fold change.
[A] 0.19

[Q] I have this sequence here, RRIRDRPPRLPRPRPRPAERPRP , and I need its recorded shrunken log2 fold change.
[A] -0.0412

[Q] I have this sequence here, RRIRKRPPRLPRPRPRPDKYPRP , and I need its recorded shrunken log2 fold change.
[A] -0.309

[Q] I have this sequence here, RRIRERPPRLPRPRPRPIEIPRP , and I need its recorded shrunken log2 fold change.
[A] -0.186

[Q] I have this sequence here, RRIRLRPPRLPRPRPRPEVQPRP , and I need its recorded shrunken log2 fold change.
[A] 0.0654

[Q] I have this sequence here, RRIRQRPPRLPRPRPRPGHIPRP , and I need its recorded shrunken log2 fold change.
[A] -0.0594

[Q] I have this sequence here, RRIRFRPPRLPRPRPRPKNKPRP , and I need its recorded shrunken log2 fold change.
[A] -0.384

[Q] I have this sequence here, RRIRNRPPRLPRPRPRPYVPPRP , and I need its recorded shrunken log2 fold change.
[A] -0.0142

[Q] I have this sequence here, RRIRDRPPRLPRPRPRPIAMPRP , and I need its recorded shrunken log2 fold change.
[A] 0.384

[Q] I have this sequence here, RRIRSRPPRLPRPRPRPREKPRP , and I need its recorded shrunken log2 fold change.
[A] 0.0145

[Q] I have this sequence here, RRIRPRPPRLPRPRPRPMMRPRP , and I need its recorded shrunken log2 fold change.
[A] 0.224

[Q] I have this sequence here, RRIRARPPRLPRPRPRPDKLPRP , and I need its recorded shrunken log2 fold change.
[A] 0.105

[Q] I have this sequence here, RRIRPRPPRLPRPRPRPCIPPRP , and I need its recorded shrunken log2 fold change.
[A] -0.556

[Q] I have this sequence here, RRIRCRPPRLPRPRPRPAFVPRP , and I need its recorded shrunken log2 fold change.
[A] 0.179

[Q] I have this sequence here, RRIRFRPPRLPRPRPRPYAIPRP , and I need its recorded shrunken log2 fold change.
[A] -0.536

[Q] I have this sequence here, RRIRIRPPRLPRPRPRPAEWPRP , and I need its recorded shrunken log2 fold change.
[A] -0.124

[Q] I have this sequence here, RRIRHRPPRLPRPRPRPIWHPRP , and I need its recorded shrunken log2 fold change.
[A] -0.327

[Q] I have this sequence here, RRIRRRPPRLPRPRPRPHRTPRP , and I need its recorded shrunken log2 fold change.
[A] 0.102

[Q] I have this sequence here, RRIRKRPPRLPRPRPRPGVEPRP , and I need its recorded shrunken log2 fold change.
[A] 1.09

[Q] I have this sequence here, RRIRWRPPRLPRPRPRPSFFPRP , and I need its recorded shrunken log2 fold change.
[A] 0.0041

[Q] I have this sequence here, RRIRIRPPRLPRPRPRPLSEPRP , and I need its recorded shrunken log2 fold change.
[A] -0.0382

[Q] I have this sequence here, RRIRTRPPRLPRPRPRPTIEPRP , and I need its recorded shrunken log2 fold change.
[A] -0.297

[Q] I have this sequence here, RRIRGRPPRLPRPRPRPKQEPRP , and I need its recorded shrunken log2 fold change.
[A] 0.0916

[Q] I have this sequence here, RRIRKRPPRLPRPRPRPAPEPRP , and I need its recorded shrunken log2 fold change.
[A] 1.26

[Q] I have this sequence here, RRIRERPPRLPRPRPRPSIMPRP , and I need its recorded shrunken log2 fold change.
[A] -1.02

[Q] I have this sequence here, RRIRARPPRLPRPRPRPLRPPRP , and I need its recorded shrunken log2 fold change.
[A] 1.08

[Q] I have this sequence here, RRIRMRPPRLPRPRPRPHCMPRP , and I need its recorded shrunken log2 fold change.
[A] -0.122

[Q] I have this sequence here, RRIRKRPPRLPRPRPRPSQDPRP , and I need its recorded shrunken log2 fold change.
[A] 0.107

[Q] I have this sequence here, RRIRERPPRLPRPRPRPAPKPRP , and I need its recorded shrunken log2 fold change.
[A] 0.678

[Q] I have this sequence here, RRIRTRPPRLPRPRPRPPKPPRP , and I need its recorded shrunken log2 fold change.
[A] 0.304

[Q] I have this sequence here, RRIRCRPPRLPRPRPRPNFEPRP , and I need its recorded shrunken log2 fold change.
[A] -0.0286

[Q] I have this sequence here, RRIRIRPPRLPRPRPRPYYCPRP , and I need its recorded shrunken log2 fold change.
[A] -0.529

[Q] I have this sequence here, RRIRFRPPRLPRPRPRPLHSPRP , and I need its recorded shrunken log2 fold change.
[A] 0.12

[Q] I have this sequence here, RRIRSRPPRLPRPRPRPNFNPRP , and I need its recorded shrunken log2 fold change.
[A] -0.298

[Q] I have this sequence here, RRIRQRPPRLPRPRPRPNWMPRP , and I need its recorded shrunken log2 fold change.
[A] 0.0507

[Q] I have this sequence here, RRIRERPPRLPRPRPRPFREPRP , and I need its recorded shrunken log2 fold change.
[A] -0.235

[Q] I have this sequence here, RRIRIRPPRLPRPRPRPHSIPRP , and I need its recorded shrunken log2 fold change.
[A] -0.933

[Q] I have this sequence here, RRIRMRPPRLPRPRPRPLYQPRP , and I need its recorded shrunken log2 fold change.
[A] -0.38

[Q] I have this sequence here, RRIRIRPPRLPRPRPRPKLIPRP , and I need its recorded shrunken log2 fold change.
[A] -0.233

[Q] I have this sequence here, RRIRTRPPRLPRPRPRPEFNPRP , and I need its recorded shrunken log2 fold change.
[A] 0.085

[Q] I have this sequence here, RRIRARPPRLPRPRPRPHKEPRP , and I need its recorded shrunken log2 fold change.
[A] 0.131

[Q] I have this sequence here, RRIRLRPPRLPRPRPRPIHMPRP , and I need its recorded shrunken log2 fold change.
[A] -0.0933

[Q] I have this sequence here, RRIRHRPPRLPRPRPRPPQHPRP , and I need its recorded shrunken log2 fold change.
[A] -0.177

[Q] I have this sequence here, RRIRLRPPRLPRPRPRPTSGPRP , and I need its recorded shrunken log2 fold change.
[A] 0.0882

[Q] I have this sequence here, RRIRCRPPRLPRPRPRPGRVPRP , and I need its recorded shrunken log2 fold change.
[A] 0.288

[Q] I have this sequence here, RRIRRRPPRLPRPRPRPYPDPRP , and I need its recorded shrunken log2 fold change.
[A] -0.0558

[Q] I have this sequence here, RRIRVRPPRLPRPRPRPVRHPRP , and I need its recorded shrunken log2 fold change.
[A] 0.0933
